Tested on: C. parvum
Protocol notes: In vitro inhibition of C. parvum development in HCT-8 cells
Type: cell-based
Condition parameters: Cryptosporidium parvum; HCT-8 cells, Table 4; read-out: EC50 for inhibition of C. parvum development in HCT-8 cells
Assay metric: EC50 (µM)

The examples below pair each entry with its known result.
{"columns": ["Compound", "EC50, µM"],
 "data": [
  ["O=C(Cc1cc(Cl)ccc1Cl)N1CCN(c2ccc3nncn3n2)CC1 [Example 2746]", 33],
  ["O=C(Cc1ccc(F)c(F)c1)N1CCN(c2ccc3nncn3n2)CC1 [Example 2800]", 0.76],
  ["Cc1cc(CC(=O)N2CCN(c3ccc4nncn4n3)CC2)ccc1F [Example 2759]", 0.335],
  ["O=C(Cc1ccc(Cl)c(Cl)c1)N1CCN(c2ccc3nnc(-c4ccccc4)n3n2)CC1 [Example 2807]", 15]
]}

I. O=C(C(=O)N1CCN(c2ccc3nncn3n2)CC1)c1ccc(Cl)c(Cl)c1 [Example 2765]
II. O=C(Cc1ccc(Cl)c(Br)c1)N1CCN(c2ccc3nncn3n2)CC1 [Example 10239]
Which shows the larger EC50 value: I or II ? State the label of the item chosen.
I
(I: 2.25 µM, II: 0.121 µM)

P. O=C(Cc1ccc(Br)c(Cl)c1)N1CCN(c2ccc3nncn3n2)CC1 [Example 10238]
Q. O=C(Cc1cc(Cl)cc(Cl)c1)N1CCN(c2ccc3nncn3n2)CC1 [Example 2747]
Among P and Q , whose measured EC50 is the smaller figure? Indicate your choice by writing its label.
P
(P: 0.251 µM, Q: 0.99 µM)
